Values from the supplement of paper PMC10567573

B1: FCHSD1 (parent)
chain: LQEPGVFSPTPPQQFQPAGTDQVC

Variants of: B1
assay_notes: protein stability index of a GFP-peptide fusion (GPS, HEK-293T) (PSI 1-6); higher = more stable;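 further: lentivirally expressed fusions sorted by FACS into six bins by GFP to DsRed ratio, PSI derived from sequencing read proportions per bin multiplied by bin number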
condition_summary: c terminus: a fixed tail appended
property_name: protein stability index
Give the figure by itself; no unit, no explanation.

// worked examples, protein stability index included
[[record]]
monomer_sequence = "LQEPGVFSPTPCQQFQPAGTDQVC [P12C]"
endpoint_result = 4.02

[[record]]
monomer_sequence = "LQEPGVFSPTPPQVFQPAGTDQVC [Q14V]"
endpoint_result = 4.1

[[record]]
monomer_sequence = "LQEPGVFSNTPPQQFQPAGTDQVC [P9N]"
endpoint_result = 4.04

[[record]]
monomer_sequence = "LQEPGVFSPTPLQQFQPAGTDQVC [P12L]"
endpoint_result = 3.96


Task: Would you kindly share the measured protein stability index for LQEPGVFSPNPPQQFQPAGTDQVC [T10N] ?
Result: 3.98

Task: Would you kindly share the measured protein stability index for LQEPGVFSPVPPQQFQPAGTDQVC [T10V] ?
Result: 3.96

Task: Would you kindly share the measured protein stability index for LQEPGVFSITPPQQFQPAGTDQVC [P9I] ?
Result: 4.03

Task: Would you kindly share the measured protein stability index for LQEPGVFSPTIPQQFQPAGTDQVC [P11I] ?
Result: 4.04

Task: Would you kindly share the measured protein stability index for LQEPGVFSPTPMQQFQPAGTDQVC [P12M] ?
Result: 4.09
